Answer each item with its documented cell viability.
Tested on: SEM cells
ASSAY_PROTOCOL: cell viability relative to DMSO control; higher = less cytotoxic
STATED_CONDITIONS: HPLM + 10% dialyzed FBS; 48 h; 15.4 µM

Qu. What cell viability appears in the records for this compound with SEM cells? COC(=O)CCC1=C(C)C2=CC3=NC(=CC4=C(C)C(=C([NH]4)C=C\5N=C(C=C1[NH]2)\C(=C5C)CCC(O)=O)C=C)\C6=C\C=C(/[C@@H](C(=O)OC)[C@@]36C)C(=O)OC
Ans. 82.7%

Qu. Value wanted: cell viability (SEM cells) of entry C/C1=C/C(=C(/CNC(=O)C2=CC(=CC3=C2C=N[N]3C4CCCC4)C5=CC=C(CN6CCOCC6)C=C5)C(=O)N1)C
Ans. 106%

Qu. Entry N#Cc1c(N(CC(=O)[O-])CC(=O)[O-])sc(C(=O)[O-])c1CC(=O)[O-].O.O.O.O.O.O.O.[Sr+2].[Sr+2] , system SEM cells: what cell viability was measured?
Ans. 103%

Qu. Missing value: cell viability, SEM cells, entry C/C=C(\C)C(=O)N[C@@H](c1ccccc1)[C@@H](O)C(=O)O[C@H]1C[C@@]2(O)[C@@H](OC(=O)c3ccccc3)[C@@H]3[C@]4(OC(C)=O)CO[C@@H]4C[C@H](O)[C@@]3(C)C(=O)[C@H](OC(C)=O)C(=C1C)C2(C)C . Fill in?
Ans. 15.9%

Qu. Form: Entry = Clc1ccc(CCC(Cn2ccnc2)Sc2c(Cl)cccc2Cl)cc1 (stereo unspecified) | System = SEM cells | cell viability = ____
Ans. 76.8%

Qu. Observed cell viability on SEM cells for CN(C)c1ccc(-c2nc3c(N4CCN(CC(=O)Nc5nccs5)CC4)c(Cl)cnc3[nH]2)cc1 , please.
Ans. 80%

----------
Test system: SEM cells
ASSAY_PROTOCOL: cell viability relative to DMSO control; higher = less cytotoxic
STATED_CONDITIONS: RPMI 5 mM glucose + 10% dialyzed FBS; 48 h; 0.0632 µM
For each record, write down the corresponding cell viability.
# output: bare number, implied unit %

Qu. Test system SEM cells; read-out cell viability; what value for c1cc2c(cc1[C@H]1OC[C@H]3[C@@H]1CO[C@@H]3c1ccc3c(c1)OCO3)OCO2 ?
Ans. 113

Qu. Return cell viability measured with SEM cells given this compound: CN1CCN(c2ncc(-c3cc(Cl)cc(Cl)c3Cl)c(N)n2)CC1
Ans. 139

Qu. What cell viability appears in the records for this compound with SEM cells? CN1CCC(CNc2ccc3ncc(-c4cccc(OC(F)(F)F)c4)n3n2)CC1
Ans. 99.4

Qu. Identify the measured cell viability of CC1=CC/2=C(C=C1C)N(C[C@@H](O)[C@@H](O)[C@@H](O)CO)C/3=N/C(=O)NC(=O)C3=N2 for SEM cells.
Ans. 110

Qu. // fetch SEM cells cell viability for CC(=O)N(O)CCCCCNC(=O)CCC(=O)N(O)CCCCCNC(=O)CCC(=O)N(O)CCCCCN.C[S+](=O)([O-])O
Ans. 25.4

Qu. Request: cell viability, test system SEM cells, entry CCn1c(C(=O)N(C2CC2)C2CC2)cc2c3c(ncn3C)c(Nc3cc(C)n(C)n3)nc21
Ans. 104

Qu. Value wanted: cell viability (SEM cells) of entry CCOc1cc(C(=O)Nc2ccc(Cl)c(-c3nc4ccccc4[nH]3)c2)cc(OCC)c1OCC
Ans. 85.6

Qu. Give SEM cells cell viability for O=c1oc2cc(O)ccc2s1
Ans. 121

Qu. // fetch SEM cells cell viability for Cc1nnc(C(=O)NC(C)(C)c2nc(C(=O)NCc3ccc(F)cc3)c(O)c(=O)n2C)o1
Ans. 109

----------
Tested on: SEM cells
ASSAY_PROTOCOL: cell viability relative to DMSO control; higher = less cytotoxic
STATED_CONDITIONS: RPMI 5 mM glucose + 10% dialyzed FBS; 48 h; 0.0632 µM
MEASURED_ATTRIBUTE: cell viability
The number alone won't do; follow it with the unit.

Qu. Param item = O=C(NOCC1CC1)c1ccc(F)c(F)c1Nc1ccc(I)cc1Cl ; retrieve measured cell viability.
Ans. 102%

Qu. What value of cell viability has been reported for the following molecule? COc1cc2c(cc1O)CCC1C2CC[C@@]2(C)C1CC[C@@H]2O (stereo partly drawn)
Ans. 118%

Qu. Param item = CCC(=O)N1CCN(CC1)C2=C(C=C(C=C2)N3C(=O)\C=C/C4=C3C5=CC(=CC=C5N=C4)C6=CN=C7C=CC=CC7=C6)C(F)(F)F ; retrieve measured cell viability.
Ans. 61.2%

Qu. For CC[C@H](C)C(=O)O[C@H]1C[C@@H](C)\C=C2\C=C/[C@H](C)[C@H](CC[C@@H]3C[C@@H](O)CC(=O)O3)[C@@H]12 , what is its reported cell viability?
Ans. 97%

Qu. Reported cell viability, molecule COc1cc2cc(c1Cl)N(C)C(=O)C[C@H](OC(=O)C(C)C)[C@]1(C)O[C@@H]1[C@H](C)[C@@H]1C[C@@](O)(NC(=O)O1)[C@H](OC)/C=C/C=C(\C)C2 : ____
Ans. 8.42%

Qu. Item under review: CC(C)[C@H]1C(=O)N[C@H](CO)Cc2c[nH]c3cccc(c23)N1C . Reported cell viability?
Ans. 102%

Qu. What value of measured cell viability is listed for OC[C@H]1OC(O)C[C@@H](O)[C@@H]1O (stereo partly drawn) ?
Ans. 118%

Qu. Suppose we examine the molecule O=C1c2ccccc2-c2n[nH]c3cccc1c23 ; what cell viability value has been reported?
Ans. 91%

----------
For each of the molecules below, state its cell viability.
Tested on: NOMO1
ASSAY_PROTOCOL: cell viability relative to DMSO control; higher = less cytotoxic
STATED_CONDITIONS: RPMI 5 mM glucose + 10% dialyzed FBS; 48 h; 5.12 µM
Numeric only. Scale: %

Qu. So what's the measured cell viability for this one? COCC(=O)NC/C=C/c1ccc2ncnc(Nc3ccc(Oc4ccc(C)nc4)c(C)c3)c2c1
Ans. 57.6

Qu. # query: cell viability of entry C=C1CCC2[C@](C)(CO)C(O)CC[C@]2(C)C1C/C=C1/C(=O)OCC1O (stereo partly drawn)
Ans. 95.5

Qu. Can you share its cell viability? I mean this molecule: CCOC(=O)c1c(CSc2ccccc2)n(C)c2cc(Br)c(O)c(CN(C)C)c12
Ans. 108

Qu. Need cell viability of C[C@@H]1CC[C@@]2(CC[C@]3(C)\C(=C/C[C@@H]4[C@@]5(C)C[C@@H](O)[C@H](O)[C@@](C)(CO)[C@@H]5CC[C@@]34C)[C@@H]2[C@H]1C)C(O)=O , thanks.
Ans. 120

Qu. I would be grateful if you could share the reported cell viability for NC(=O)N1CCC(CC(=O)N2CCC([C@H]3c4ncc(Br)cc4CCc4cc(Cl)cc(Br)c43)CC2)CC1 .
Ans. 95.7

Qu. Field request: cell viability | item: Cc1noc(N[S+](=O)([O-])c2ccc(N)cc2)c1C
Ans. 90.3

Qu. Find the recorded cell viability belonging to CCC(=O)N1CCN(CC1)C2=C(C=C(C=C2)N3C(=O)\C=C/C4=C3C5=CC(=CC=C5N=C4)C6=CN=C7C=CC=CC7=C6)C(F)(F)F and report it.
Ans. 57.6

Qu. Fill in: cell viability of CCn1c(C(=O)N(C2CC2)C2CC2)cc2c3c(ncn3C)c(Nc3cc(C)n(C)n3)nc21 is ___
Ans. 110

----------
System: NOMO1
ASSAY_PROTOCOL: cell viability relative to DMSO control; higher = less cytotoxic
STATED_CONDITIONS: RPMI 5 mM glucose + 10% FBS; 48 h; 0.0211 µM
MEASURED_ATTRIBUTE: cell viability (%)
Just the number in %, nothing appended.

Qu. Field request: cell viability | item: Cc1noc(N[S+](=O)([O-])c2ccc(N)cc2)c1C
Ans. 89.5

Qu. Can you look up the measured cell viability of N#Cc1cc(NC(=O)Nc2nnc(-c3ccncc3)s2)ccc1-c1cn[nH]c1 for me?
Ans. 124

Qu. State the recorded cell viability for this entry: C=C1CCC2[C@](C)(CO)C(O)CC[C@]2(C)C1C/C=C1/C(=O)OCC1O (some centres undefined)
Ans. 101

Qu. Which cell viability is reported for this compound? c1coc(CNc2ncnc3nc[nH]c23)c1
Ans. 113

Qu. Using the record for CCC(=O)N1CCN(CC1)C2=C(C=C(C=C2)N3C(=O)\C=C/C4=C3C5=CC(=CC=C5N=C4)C6=CN=C7C=CC=CC7=C6)C(F)(F)F , report its cell viability.
Ans. 104

Qu. Which cell viability reading was recorded for the compound COc1cc(C[C@@H](CO)[C@H](CO)Cc2ccc(O)c(OC)c2)ccc1O ?
Ans. 111

Qu. Which cell viability is listed for COc1ccc(/C=C/C(=O)Nc2ccccc2C(=O)O)cc1OC ?
Ans. 109

Qu. # input compound: COc1cccc(N(C)C(=S)Oc2ccc3c(c2)CCCC3)n1 ; wanted: its cell viability
Ans. 82.2

Qu. Sample CC(C)C[C@H](CC(=O)O)C(=O)N[C@@H](Cc1c[nH]c2ccccc12)C(=O)N[C@@H](C)c1ccccc1 — what was its cell viability?
Ans. 103

Qu. Item CC(=O)N(O)CCCCCNC(=O)CCC(=O)N(O)CCCCCNC(=O)CCC(=O)N(O)CCCCCN.C[S+](=O)([O-])O has what recorded cell viability?
Ans. 45.7

Qu. Look at this compound and give its reported cell viability. CCOc1cc(C(=O)Nc2ccc(Cl)c(-c3nc4ccccc4[nH]3)c2)cc(OCC)c1OCC
Ans. 92.8

Qu. Requested field: cell viability. Item: Nc1nccc(-c2ccc3noc(-c4ccc(Cl)cc4)c3c2)n1
Ans. 127

Qu. Entry Clc1ccc(C(c2ccc(Cl)cc2)[n+]2ccn(CC(OCc3ccc(Cl)cc3Cl)c3ccc(Cl)cc3Cl)c2)cc1 (centres undefined) has what cell viability?
Ans. 94.7

Qu. # input compound: c1cc2c(cc1[C@H]1OC[C@H]3[C@@H]1CO[C@@H]3c1ccc3c(c1)OCO3)OCO2 ; wanted: its cell viability
Ans. 130

Qu. Fill in: cell viability of O=c1oc2cc(O)ccc2s1 is ___
Ans. 108

Qu. cell viability lookup needed for O=C(O)c1cccnc1 , thanks.
Ans. 102

Qu. Which cell viability value is on record for C/C1=C/C(=C(/CNC(=O)C2=CC(=CC3=C2C=N[N]3C4CCCC4)C5=CC=C(CN6CCOCC6)C=C5)C(=O)N1)C ?
Ans. 120

Qu. I would be grateful if you could share the reported cell viability for Cc1nnc(C(=O)NC(C)(C)c2nc(C(=O)NCc3ccc(F)cc3)c(O)c(=O)n2C)o1 .
Ans. 92.4

Qu. Entry under review: CN(CC(=O)N(Cc1ccc(C2CCCCC2)cc1)c1ccc(C(=O)O)c(O)c1)[S+](=O)([O-])c1c(F)c(F)c(F)c(F)c1F . Reported cell viability?
Ans. 84.3
